Tested on: Rattus norvegicus
test.summary: Antithrombotic activity at 100 mg/kg in rat
Format: functional
Lab note - cut at 400 mg for LD50: Fulfilled if strictly below, Not fulfilled if not.

Q. Hello, I'm reviewing records and need to know if LD50 of `O=[N+]([O-])c1ccc(Cc2ccc(O[C@@H]3OC[C@@H](O)[C@H](O)[C@H]3O)cc2)cc1` is below 400 mg. Could you check?
A. Not fulfilled

Q. Confirm or reject: LD50 of `O[C@@H]1[C@@H](O)[C@H](Oc2cccc(Cc3ccc(Cl)cc3)c2)OC[C@H]1O` lies strictly below 400 mg
A. Not fulfilled

Q. Given OC(c1ccc(O[C@@H]2OC[C@@H](O)[C@H](O)[C@H]2O)cc1)c1ccc(Cl)cc1Cl (some centres not stated) , is recorded LD50 strictly lower than 400 mg?
A. Fulfilled

Q. Strictly below 400 mg: is that where LD50 of Cc1cc(C(O)c2ccccc2C)ccc1O[C@@H]1OC[C@@H](O)[C@H](O)[C@H]1O (some centres not stated) sits?
A. Not fulfilled

Q. Does the reported LD50 of `O[C@@H]1[C@@H](O)[C@H](Oc2ccc(Cc3ccc(Cl)cc3Cl)cc2)OC[C@H]1O` stay below 400 mg?
A. Not fulfilled

Q. # check: LD50 < 400 mg for O=[N+]([O-])c1cccc(C(O)c2ccc(O[C@@H]3OC[C@@H](O)[C@H](O)[C@H]3O)cc2)c1 (some centres not stated)
A. Not fulfilled

Q. # check: LD50 < 400 mg for `O[C@@H]1[C@@H](O)[C@H](Oc2cccc(Cc3ccccc3)c2)OC[C@H]1O`
A. Fulfilled
